molecular target: Cytochrome P450 2D6 (Homo sapiens); assay: Cytochrome P450 family 2 subfamily D member 6 (CYP2D6) small molecule antagonists: luciferase biochemical (cell-free) qHTS assay (AID 1645840); details: P450-Glo CYP2D6 enzyme, luciferin luminescence, 1 h; series mostly up to 57.4 µM; further: nearly all actives have a fitted effect of over 55% in size
Inconclusive results are not listed. Activity calls are given as the source filed them. The call rests on the fitted dose curve; in most records, active means well fitted inhibition curve with a large enough effect in the repeat runs; inconclusive means weak or mixed curves; inactive means flat fitted curve, though single readings scatter.
// classify into y for active, n for inactive

These recorded examples may help you get a feel for the data.
Molecule	Cat
CN(CCCCCCCCCCN(C)C(=O)Oc1cccc([N+](C)(C)C)c1)C(=O)Oc1cccc([N+](C)(C)C)c1	n
COc1ccc(C(=O)Nc2ccc3oc(-c4ccc(OC)cc4)nc3c2)cc1	n
Nc1c(-c2nc(-c3ccc4c(c3)OCO4)cs2)c2ccccn2c1C(=O)c1ccccc1	n

--- query ---
Which outcome was entered for the molecule `CN(C)[S+](=O)([O-])c1ccc([S+](=O)([O-])N(Cc2cccs2)Cc2ccccc2Cl)cc1` in this test? y
